# target_entity: T1, GPC3 on HepG2 cells (human, UniProt P51654 25-554)
# T1 construct: whole, on cells; also called glypican-3
# protocol_description: FACS on HepG2 cells
Overview of recorded EC50 for various binders
Numbers only; they are read as nM.

Some solved entries appear below for comparison.
binder	measurement_units	EC50
hAb003LH2L1b (antibody, human IgG1, V domains shown, Humanized F2.154.1, H2+L1b) VH: EVQLVQSGAEVKKPGSSVKVSCKASGYRFTDYEMHWVRQAPGQGLEWMGTIDPETGNTAYTQKFMDRVTITADKSTSTAYMELSSLRSEDTAVYYCTRGYSFTYWGQGTLVTVSS VL: DIVMTQTPLSLPVTPGEPASISCRSSQNIVHSNRNTYLQWYLQKPGQSPQLLIFKVSNRFSGVPDRFSGSGSGTDFTLKISRVEAEDVGVYYCFQGSHVPFTFGQGTKLEIK	nM	0.84
hAb006LH3L1c (antibody, human IgG1, V domains shown, Humanized F3.38.7, H3+L1c) VH: EVQLVQSGAEVKKPGSSVKVSCKASGYTFTDYEIHWVRQAPGQGLEWMGAIDPKTGNTAYNQKFMGRVTLTADKSTSTAYMELSSLRSEDTAVYYCTRYFSFAYWGQGTLVTVSS VL: DIVMTQTPLSLPVTPGEPASISCRSSQTFVHSNRNTYLQWYLQKPGQSPQLLIYKVSNRFSGVPDRFSGSGSGTDFTLKISRVEAEDVGVYYCFQGSHVPYTFGQGTKLEIK	nM	0.417
hAb007LH2L1b (antibody, human IgG1, V domains shown, Humanized F3.81.19, H2+L1b) VH: EVQLVQSGAEVKKPGSSVKVSCKASGYTFTDYEMHWVRQAPGQGLEWMGTIDPETGNTAYNQKFKGRVTITADKSTSTAYMELSSLRSEDTAVYYCTRPYSLTYWGQGTLVTVSS VL: DIVMTQTPLSLPVTPGEPASISCRSSQSFVHSNRDTYLQWYLQKPGQSPQLLIYKVSNRFSGVPDRFSGSGSGTDFTLKISRVEAEDVGVYYCFQGSHVPYTFGQGTKLEIK	nM	9.53

input: Please report EC50 for the following binder: hAb006LH3L1b (antibody, human IgG1, V domains shown, Humanized F3.38.7, H3+L1b) VH: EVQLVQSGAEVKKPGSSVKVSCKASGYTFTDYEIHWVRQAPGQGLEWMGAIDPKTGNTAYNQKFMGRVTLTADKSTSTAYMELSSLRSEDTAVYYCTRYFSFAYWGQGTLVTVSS VL: DIVMTQTPLSLPVTPGEPASISCRSSQTFVHSNANTYLQWYLQKPGQSPQLLIYKVSNRFSGVPDRFSGSGSGTDFTLKISRVEAEDVGVYYCFQGSHVPYTFGQGTKLEIK
output: 1.49

input: Please report EC50 for the following binder: hAb007LH1L1e (antibody, human IgG1, V domains shown, Humanized F3.81.19, H1+L1e) VH: EVQLVQSGAEVKKPGSSVKVSCKASGYTFSDYEMHWVRQAPGQGLEWMGTIDPETGNTAYNQKFKGRVTITADKSTSTAYMELSSLRSEDTAVYYCTRPYSLTYWGQGTLVTVSS VL: DIVMTQTPLSLPVTPGEPASISCRSSQSFVHSNVDTYLQWYLQKPGQSPQLLIYKVSNRFSGVPDRFSGSGSGTDFTLKISRVEAEDVGVYYCFQGSHVPYTFGQGTKLEIK
output: 10.1
